# measurement-target: T1, soluble HLA-DRB1*03:01 human MHC II protein (human)
# T1 construct: Soluble protein purchased from the Benaroya Research Institute; also called HLA-DR3; DR3
# test-details: soluble-phase competition vs biotin-labelled control peptide, Eu3+-streptavidin time-resolved fluorescence

binder	binding result
KHCHGCVRYFLRVPSWKITLFKK (P4 with the motif KHCPYC replaced by KHCHGC) [P8 peptide KHCHGCVRYFLRVPSWKITLFKK]	binds
KHCPYCGGFLRVPSWKITLFKK (P4 with the linker VRY replaced by GG) [P11 peptide KHCPYCGGFLRVPSWKITLFKK]	binds
KCRCVRYFLRVPSWKITLFKK (P4 with the motif KHCPYC replaced by KCRC) [P9 peptide KCRCVRYFLRVPSWKITLFKK]	binds

The reported numbers originate from patent US20230340061A1.
